B1: SLC19A2 (parent)
chain: FASLRPSEPFLTPYLLGPDKNLTE

Variants of: B1
run description: protein stability index of a GFP-peptide fusion (GPS, HEK-293T) (PSI 1-6); higher = more stable;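 note: lentivirally expressed fusions sorted by FACS into six bins by GFP to DsRed ratio, PSI derived from sequencing read proportions per bin multiplied by bin number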
reported conditions: c terminus: a fixed tail appended
// label = 1.0 if protein stability index is not less than 2, otherwise 0.0

Query block: Is reported protein stability index greater than or equal to 2 here: D19M
Result block: 1.0

Query block: Is reported protein stability index greater than or equal to 2 here: P6N
Result block: 0.0

Query block: Is reported protein stability index greater than or equal to 2 here: L15N
Result block: 1.0

Query block: Is reported protein stability index greater than or equal to 2 here: T12L
Result block: 0.0

Query block: Is reported protein stability index greater than or equal to 2 here: L15R
Result block: 0.0
